Cited source for all entries: ChEMBL document CHEMBL2177068

# protocol text: Cellular uptake in human T lymphocytes assessed as compound retention at 3 to 20 uM incubated for 3 hrs followed by drug washout measured after 3 hrs by LC-MS/MS analysis relative to initial drug accumulation
# Type: ADME, cell-based
# condition details: t-cell
result type: Drug uptake

INSERT INTO measurements (molecule, result_type, reading) VALUES
  ('CC[C@H]1OC(=O)[C@H](C)[C@@H](O[C@H]2C[C@@](C)(OC)[C@@H](O)[C@H](C)O2)[C@H](C)[C@@H](O[C@@H]2O[C@H](C)C[C@H](N(C)C)[C@H]2O)[C@](C)(OC)C[C@@H](C)C(=O)N[C@H](C)[C@@H](O)[C@]1(C)O', 'Drug uptake', '2%'),
  ('CC[C@H]1OC(=O)[C@H](C)[C@@H](O)[C@H](C)[C@@H](O[C@@H]2O[C@H](C)C[C@H](N(C)C)[C@H]2O)[C@](C)(O)C[C@@H](C)CN(C)[C@H](C)[C@@H](O)[C@]1(C)O [DESCLADINOSYL AZITHROMYCIN]', 'Drug uptake', '46%');
